Value source: patent US20230053688A1

# System: LMP1 expression in Kem I cells
# EXPERIMENT_NOTES: microbe, parasite or virus in culture
# Format: cell-based, EBV
# CONDITION_SET: human gammaherpesvirus 4, 48 h, read-out: Replicate 1-LMP1 Fold Increase, Kem I cells, 2.5 uM, 48 hours, fold change in LMP1 transcript vs vehicle
Counter-ions that a name gives are not always drawn.
What fold induction at 2.5 µM was measured for each of the following?
One number for each entry.

// known answers, use as guide
Cc1[nH]c(/C=C2\C(=O)Nc3ccc(S(=O)(=O)N(C)c4cccc(Cl)c4)cc32)c(C)c1C(=O)N1CCN(C)CC1 [SU11274] : 1.05
CNC(=O)c1cc(Oc2ccc(NC(=O)Nc3ccc(Cl)c(C(F)(F)F)c3)cc2)ccn1 [Sorafenib] : 0.43
CCOC(=O)c1cncn1[C@H](C)c1ccccc1 [Etomidate] : 0.56
CCOC(=O)[C@H]1O[C@@H]1C(=O)N[C@@H](CC(C)C)C(=O)NCCC(C)C [Aloxistatin] : 0.1
CCC(=O)NCC[C@@H]1CCc2ccc3c(c21)CCO3 [Ramelteon] : 0.45

Hey, can you go through the list below and give me fold induction at 2.5 µM for every item?
1. C[C@@H](NCCCc1cccc(C(F)(F)F)c1)c1cccc2ccccc12 [Cinacalcet HCl]
2. CN1C2CCCC1CC(NC(=O)c1nn(C)c3ccccc13)C2 (centres unmarked) [Granisetron HCl]
3. CCCCN1CCCCC1C(=O)Nc1c(C)cccc1C (centres unmarked) [Bupivacaine HCl]
4. CN1CCN(c2nc(C3=C(c4c[nH]c5ccccc45)C(=O)NC3=O)c3ccccc3n2)CC1 [Sotrastaurin]
5. O=C(O)/C=C/c1ccc(Cn2ccnc2)cc1 [Ozagrel]
6. Cc1cc2c(C(C)C)c(O)c(O)c(C=O)c2c(O)c1-c1c(C)cc2c(C(C)C)c(O)c(O)c(C=O)c2c1O [AT101]

[1.17, 0.25, 0.64, 0.3, 1.27, 0.51]

The following molecules each have a reported value; give each one's fold induction at 2.5 µM.
1. Cc1sc2c(c1C)C(c1ccc(Cl)cc1)=N[C@@H](CC(=O)Nc1ccc(O)cc1)c1nnc(C)n1-2 [OTX015]
2. C[C@]12CC[C@@H]3c4ccc(O)cc4C[C@@H](CCCCCCCCC[S+]([O-])CCCC(F)(F)C(F)(F)F)[C@H]3[C@@H]1CC[C@@H]2O (some centres unmarked) [Fulvestrant]
3. COc1ccccc1OCCNCC(O)COc1cccc2[nH]c3ccccc3c12 (centres unmarked) [Carvedilol]
4. Cc1[nH]c(/C=C2\C(=O)Nc3ccc(S(=O)(=O)Cc4c(Cl)cccc4Cl)cc32)c(C)c1C(=O)N1CCC[C@@H]1CN1CCCC1 [PHA-665752]
5. O=C(/C=C/c1ccc(O)c(O)c1)OCCc1ccccc1 [Caffeic Acid Phenethyl Ester]
6. O=C(NC(Cc1cc(=O)[nH]c2ccccc12)C(=O)O)c1ccc(Cl)cc1 (centres unmarked) [Rebamipide]

[0.14, 0.16, 0.89, 0.55, 0.59, 0.48]

###

# System: LMP1 expression in Kem I cells
# EXPERIMENT_NOTES: microbe, parasite or virus in culture
# Type: cell-based, EBV
# CONDITION_SET: human gammaherpesvirus 4, 48 h, read-out: Average LMP1 Fold Increase, Kem I cells, 2.5 uM, 48 hours, average of replicates 1 and 2
Returns t if the recorded fold induction at 2.5 µM is greater than or equal to 0.9, and f otherwise.

Kindly determine if fold induction at 2.5 µM recorded for COC(=O)C1=C(C#N)NC(C)=C(C(=O)OC(C)C)C1c1cccc([N+](=O)[O-])c1 (stereo not drawn) is above or exactly 0.9.
f

Determine whether this molecule has fold induction at 2.5 µM no lower than 0.9: COc1ccccc1N1CCN(CC(O)COc2cccc3ccccc23)CC1 (stereo not drawn)
t

Assess whether reported fold induction at 2.5 µM for `C[C@@H]1CN(CC(=O)Nc2ccc3c(c2)Cc2cccc(-c4cc(=O)cc(N5CCOCC5)o4)c2S3)C[C@H](C)O1` sits at 0.9 or higher.
f
